- Experimental protocol: HT1080 cell viability loss – fluorescence readout (AID 620);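 note: cells exposed to compound overnight then 4 h with Alamar Blue; 0% = vehicle DMSO and 100% = killing control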
- Particulars: at 10 µM, stronger effect = higher value
The whole screen tested about 87,000 compounds, of which about 360 (0.41%) were called active. For the sample, actives were picked, then their nearest neighbours and some compounds at random.
Endpoint name: cytotoxicity (%)
Reply numerically in %, unit not repeated.

Recorded cytotoxicity, per entry:
[[record]]
compound = "CC1=CC(C)(C)N(C(=O)c2ccccc2)c2ccc(C)cc21"
units_of_measure = "%"
measured_number = -8.8

[[record]]
compound = "CC1=CC(C)(C)N(S(=O)(=O)c2ccc(C)cc2)c2ccc(C)cc21"
units_of_measure = "%"
measured_number = 64.1

[[record]]
compound = "Cc1ccc2c(c1)[C@@H]1CN(C)CC[C@@H]1N2S(=O)(=O)c1ccc(F)cc1"
units_of_measure = "%"
measured_number = 3.2


Item COc1ccc(C(=O)/C=C(\N)C(F)(F)F)c(O)c1 has what recorded cytotoxicity?
-3.6

Item CC1=CC(C)(C)N(C(=O)CN2C(=O)c3ccccc3C2=O)c2ccccc21 has what recorded cytotoxicity?
12.7

Item COc1ccc(NC(=O)c2cc(CN3C(=O)c4ccccc4C3=O)ccc2OC)cn1 has what recorded cytotoxicity?
-0.1

Item COc1ccc(NC(=O)c2cc(=O)c3ccccc3o2)cn1 has what recorded cytotoxicity?
7

Item NC(=O)C(c1ccccc1)C1CCCCC1 (stereo unspecified) has what recorded cytotoxicity?
5.9

Item CC1=CC(C)(C)N(C(=O)CSc2nccn2C)c2cc(C)ccc21 has what recorded cytotoxicity?
-6.8

Item COc1ccc(NC(=O)/C(Cl)=C(/Cl)S(=O)Cc2ccc(C)cc2)cn1 (stereo unspecified) has what recorded cytotoxicity?
92.3

Item CC1=CC(C)(C)N(S(=O)(=O)c2ccc(F)cc2)c2ccccc21 has what recorded cytotoxicity?
34.7
